Test system: KM12 colon
assay procedure: NCI tumour cell line growth inhibition, 384-well format
Give measured TGI for each item. Keep answers brief.
Note: unit µM is implicit; provide only the numeric part.

**Q:** Give the observed TGI of `CNC(=O)c1cc2c(Oc3ccc(NC(=O)C4(C(=O)Nc5ccc(F)cc5)CC4)cc3)ccnc2cc1OC` for KM12 colon.
**A:** 74.6

**Q:** Give the observed TGI of `COc1cc2c(cc1-c1c(C)noc1C)cc(C)c(=O)n2Cc1ccccn1` for KM12 colon.
**A:** 20.3

**Q:** Give the observed TGI of `CCN(CC)CCNC(=O)c1c(C)[nH]c(/C=C2\C(=O)Nc3ccc(F)cc32)c1C` for KM12 colon.
**A:** 4.7

**Q:** Give the observed TGI of `Cc1nc(Nc2n[nH]c3c2CN(C(=O)N[C@H](CN(C)C)c2ccccc2)C3(C)C)c2sccc2n1` for KM12 colon.
**A:** 1.06

Data provenance is PubChem BioAssay (NCI).
